Attribution: patent US20220339270A1

- TARGET ENTITY: T1, extracellular tau in the form of paired helical filaments (ePHF tau) (UniProt P10636-8 1-441, limits assumed)
- T1 construct: Aggregated, hyperphosphorylated tau preparation; not a single defined polypeptide
- T1 sequence (P10636 other isoform, or with tags, fused parts or gaps limits assumed): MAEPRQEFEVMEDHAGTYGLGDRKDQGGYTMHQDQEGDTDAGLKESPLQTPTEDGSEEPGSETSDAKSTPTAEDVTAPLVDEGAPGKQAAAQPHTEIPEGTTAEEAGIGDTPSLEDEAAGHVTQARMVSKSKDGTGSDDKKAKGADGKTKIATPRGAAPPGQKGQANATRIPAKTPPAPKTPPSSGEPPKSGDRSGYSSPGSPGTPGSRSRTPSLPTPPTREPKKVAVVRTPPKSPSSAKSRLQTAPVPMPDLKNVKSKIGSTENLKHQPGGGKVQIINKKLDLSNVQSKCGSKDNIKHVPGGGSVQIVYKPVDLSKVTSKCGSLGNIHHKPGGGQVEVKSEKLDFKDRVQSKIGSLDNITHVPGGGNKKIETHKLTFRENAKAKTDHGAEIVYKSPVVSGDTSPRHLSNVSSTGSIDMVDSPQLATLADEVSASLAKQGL
- RUN DESCRIPTION: ePHF tau ELISA, ePHF coated; antibody at 55.6 ng/ml; anti-mouse-HRP

[
  {
    "BINDER": "anti-tau antibody MC1 expressed from viral genome construct MC1LIRESH (TAU_ITR80; SEQ ID NO: 2069) (antibody, mouse IgG1, kappa, V domains shown) VH: QVQLQQSGAELMKPGASVKISCKATGYTFSNYWIEWVKQRPGHGLEWIGEILPGSDSIKYNENFKGKATFTADTSSNTAYMQLSSLTSEDSAVYYCARRGNYPDYWGQGTTLTVSS VL: DVVMTQTPLSLPVSLGDQASISCRSSQSLVHSNGNTYLHWYLQKPGQSPKLLIYKVSNRFSGVPDRFSGSGSGTDFTLKISRVEAEDLGVYFCSQSTHVPLTFGAGTKLELKR",
    "OD450 (OD450)": 0.3
  }
]
